- Test system: Fibroblast
- test-name: Multiplex assay against human fibroblast
- Assay type: toxicity, cell-based
- test-conditions: 12 h, 1 µM, compound concentration 1 uM, replicate 1
The label is y for Total Cell Count below 100 and n for Total Cell Count equal to or exceeding 100.

INSERT INTO measurements (compound, answer_label) VALUES
  ('Cc1cccc(CN2CCN(C(c3ccccc3)c3ccc(Cl)cc3)CC2)c1.Cl.Cl (stereo not drawn)', 'n');

Exam item: Confirm or reject: Total Cell Count of CC(C)Oc1ccccc1C(=O)Nc1ccccc1C(=O)Nc1cccc(S(=O)(=O)C(F)(F)F)c1 lies strictly below 100
Marked response: n

----------
- Test system: Fibroblast
- test-name: Multiplex assay against human fibroblast
- Assay type: toxicity, cell-based
- test-conditions: 48 h, 10 µM, compound concentration 10 uM, replicate 1
# Lookup of reported Population Normal (%) keyed by entry

Please review the entries below; each comes with its answer.
INSERT INTO measurements (compound, measured_value) VALUES
  ('O=C(c1cc2c(cc1F)OC(c1ccc(F)cc1)(c1ccc(Cl)cc1Cl)O2)N1CCOCC1 (stereo not given)', '85%'),
  ('CC(C)(C)NC[C@H](O)COc1nsnc1N1CCOCC1', '83%'),
  ('Cc1c[nH]c2nccc(Oc3c(F)cc(Nc4cc(Cl)nc(N)n4)cc3F)c12', '79%'),
  ('Cc1ccccc1C(c1ccccc1C)N1C2CCC1CC(O)(c1ccccc1)C2 (stereo not given)', '92%');

Exam item: Can you look up the measured Population Normal (%) of CCc1ccc(OCc2ccccc2C(=O)Nc2ccc3nc(C)cc(N)c3c2)cc1.Cl for me?
Marked response: 52%

Recorded values, source ChEMBL document CHEMBL4689842.
